MEASURED_ON: Melanocortin receptor 4 (Homo sapiens) (UniProt P32245)
Sequence (P32245 whole entry, looked up): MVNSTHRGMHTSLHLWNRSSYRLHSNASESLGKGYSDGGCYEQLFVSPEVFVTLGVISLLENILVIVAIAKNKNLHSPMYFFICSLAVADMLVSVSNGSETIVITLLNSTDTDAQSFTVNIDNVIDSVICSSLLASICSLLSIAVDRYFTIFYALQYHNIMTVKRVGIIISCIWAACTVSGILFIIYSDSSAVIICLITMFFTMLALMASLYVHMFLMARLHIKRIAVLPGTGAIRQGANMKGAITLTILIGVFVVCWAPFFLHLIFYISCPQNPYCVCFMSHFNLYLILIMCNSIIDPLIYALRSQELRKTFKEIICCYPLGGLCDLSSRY
RUN_DESCRIPTION: MC4R antagonists in CRE-luciferase reporter cells, dose response, counter-screen for LGR2 antagonist project, cell-based, HEK293, luminescence, dry powder (AID 743505)
ASSAY_CONTEXT: antagonist mode, at 35 µM (top of the series)
Calls of active or inactive are those of the source.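 How the source made its calls: active means dose curve with falling signal and an AC50 no higher than twice the top valid tested dose; inconclusive means flat curve with 30 to 70% inhibition, or a poor fit; inactive means rising signal, flat weak curve, or AC50 over that limit.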

{"SMILES_TEXT": "C[C@H](CO)N1C[C@H](C)[C@H](CN(C)C(=O)Nc2ccccc2)OCCCC[C@H](C)Oc2ccc(NC(=O)Nc3ccccc3)cc2C1=O", "MEASURED_ON": "Melanocortin receptor 4 (Homo sapiens) (UniProt P32245)", "activity change, negative = inhibition": "inactive"}
{"SMILES_TEXT": "C[C@H](CO)N1C[C@H](C)[C@H](CN(C)C(=O)Nc2ccc(F)cc2)OCCCC[C@H](C)Oc2ccc(NC(=O)C3CCC3)cc2C1=O", "MEASURED_ON": "Melanocortin receptor 4 (Homo sapiens) (UniProt P32245)", "activity change, negative = inhibition": "inactive"}
{"SMILES_TEXT": "C[C@H]1CCCCO[C@@H](CN(C)C(=O)Nc2ccc(F)cc2)[C@@H](C)CN([C@@H](C)CO)C(=O)c2cc(NC(=O)C3CCCCC3)ccc2O1", "MEASURED_ON": "Melanocortin receptor 4 (Homo sapiens) (UniProt P32245)", "activity change, negative = inhibition": "inactive"}

====

MEASURED_ON: Melanocortin receptor 4 (Homo sapiens) (UniProt P32245)
RUN_DESCRIPTION: MC4R antagonists in CRE-luciferase reporter cells, dose response, counter-screen for LGR2 antagonist project, cell-based, HEK293, luminescence, dry powder (AID 743505)
ASSAY_CONTEXT: antagonist mode
Calls of active or inactive are those of the source.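 How the source made its calls: active means dose curve with falling signal and an AC50 no higher than twice the top valid tested dose; inconclusive means flat curve with 30 to 70% inhibition, or a poor fit; inactive means rising signal, flat weak curve, or AC50 over that limit.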
MEASUREMENT_LABEL: AC50

Some molecules with recorded AC50:
{"SMILES_TEXT": "C[C@H]1CCCCO[C@@H](CN(C)S(=O)(=O)c2ccc(Cl)cc2)[C@@H](C)CN([C@@H](C)CO)C(=O)c2cc(NC(=O)NC3CCCCC3)ccc2O1", "MEASURED_ON": "Melanocortin receptor 4 (Homo sapiens) (UniProt P32245)", "AC50": "> 70 µM (inactive)"}
{"SMILES_TEXT": "C[C@@H]1CCCCO[C@@H](CN(C)C(=O)Nc2cccc3ccccc23)[C@H](C)CN([C@@H](C)CO)C(=O)c2cc(NC(=O)C3CCCCC3)ccc2O1", "MEASURED_ON": "Melanocortin receptor 4 (Homo sapiens) (UniProt P32245)", "AC50": "> 70 µM (inactive)"}
{"SMILES_TEXT": "C[C@@H]1CCCCO[C@@H](CN(C)C(=O)Nc2cccc3ccccc23)[C@H](C)CN([C@H](C)CO)C(=O)c2cc(NC(=O)C3CCCCC3)ccc2O1", "MEASURED_ON": "Melanocortin receptor 4 (Homo sapiens) (UniProt P32245)", "AC50": "7.91 µM"}

// below: AC50 requested for another molecule
Query: Look up AC50 with Melanocortin receptor 4 (Homo sapiens) (UniProt P32245) for this molecule: "C[C@@H]1CCCCO[C@H](CN(C)C(=O)Nc2cccc3ccccc23)[C@@H](C)CN([C@H](C)CO)C(=O)c2cc(NC(=O)C3CCCCC3)ccc2O1"
Reply: > 70 µM (inactive)
